Recorded Kd values for a group of binders are listed next.
target: T1, recombinant antigen of the extracellular region of CD47 (Sino Biological, Cat: 12283-H08H) (human, UniProt Q08722 19-139); assay: Fortebio BLI, recombinant CD47 extracellular region
T1 construct: extracellular domain; also called recombinant CD47 extracellular region; CD47 recombinant protein
T1 sequence (Q08722 19-139 limits assumed): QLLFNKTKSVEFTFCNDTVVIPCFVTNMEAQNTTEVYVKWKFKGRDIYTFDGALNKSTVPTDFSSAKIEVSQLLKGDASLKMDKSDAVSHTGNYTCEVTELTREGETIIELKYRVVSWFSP
I only need the number, in nM, no unit after it.

# Binder, Kd (nM)
records = [
    ("140Hm6/hz140L (Table 2) (antibody, V domains shown, also called hz140-Hm/hz140L) VH: QVQLVQSGAEVKKPGASVKVSCKASGYKFTNYVMHWVRQAPGQRLEWMGYINPYNDGIKYNEKFQGRVTITRDTSASTAYMELSSLRSEDTAVYYCAREGDFYANYGRLGFAYWGQGTLVTVSS VL: DIQMTQSPSSLSASVGDRVTITCRASQDITNYLNWYQQKPGKAPKLLIYYTSRLHSGVPSRFSGSGSGTDYTFTISSLQPEDIATYFCQQGDTFPRTFGGGTKVEIK", 22.6),
    ("humanized 140 (hz140) (antibody, human IgG4 S228P, kappa, V domains shown, also called anti-CD47 monoclonal antibody; anti-CD47 sidearm monoclonal antibody) VH: QVQLVQSGAEVKKPGASVKVSCKASGYKFTNYVMHWVRQAPGQRLEWMGYINPYNDGIKYNEKFTGRVTITRDTSASTAYMELSSLRSEDTAVYYCAREGDFYANYGRLGFAYWGQGTLVTVSS VL: DIQMTQSPSSLSASVGDRVTITCRASQDITNYLNWYQQKPGKAPKLLIYYTSRLHSGVPSRFSGSGSGTDYTFTISSLQPEDIATYFCQQGDTFPRTFGGGTKVEIKR", 0.688),
    ("140Hm10/hz140L (Table 2) (antibody, V domains shown, also called hz140-Hm/hz140L) VH: QVQLVQSGAEVKKPGASVKVSCKASGYKFTNYVMSWVRQAPGQRLEWMGYINPYNDAIKYNEKFTGRVTITRDTSASTAYMELSSLRSEDTAVYYCAREGDFYANYGRLGFAYWGQGTLVTVSS VL: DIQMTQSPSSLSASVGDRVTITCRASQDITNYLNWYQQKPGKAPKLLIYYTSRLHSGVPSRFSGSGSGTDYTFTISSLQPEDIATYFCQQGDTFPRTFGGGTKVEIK", 7.83),
    ("140Hm9/hz140L (Table 2) (antibody, V domains shown, also called hz140-Hm/hz140L) VH: QVQLVQSGAEVKKPGASVKVSCKASGYKFTNYVMHWVRQAPGQRLEWMGYINPYNEGIKYNEKFTGRVTITRDTSASTAYMELSSLRSEDTAVYYCAREGDFYANYGRLGFAYWGQGTLVTVSS VL: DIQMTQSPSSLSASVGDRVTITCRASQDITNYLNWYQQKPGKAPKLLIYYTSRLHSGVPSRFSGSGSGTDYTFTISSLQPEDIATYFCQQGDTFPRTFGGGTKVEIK", 3.92),
]

Consider the binder shown here: 140Hm7/hz140L (Table 2) (antibody, V domains shown, also called hz140-Hm/hz140L) VH: QVQLVQSGAEVKKPGASVKVSCKASGYKFTNYVMHWVRQAPGQRLEWMGYINPYNDGIKYNEKFTGRVTITRDTSASTAYMELSSLRSEDTAVYYCAREGDFYANYGRLGFDYWGQGTLVTVSS VL: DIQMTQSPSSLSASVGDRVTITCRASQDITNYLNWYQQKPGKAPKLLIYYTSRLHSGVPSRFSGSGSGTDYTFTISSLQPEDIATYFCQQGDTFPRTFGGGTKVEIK What is its recorded Kd?
61.4
